- assay_remarks: Stability in human liver microsomes
- Assay type: in vitro ADME
- cond: human hepatic microsomes (XenoTech), with NADP cofactor, 37 °C, 1 h incubation, LC-MS/MS, read-out: fraction of initial concentration remaining in human liver microsomes
Numbered stars: 1 amine (or outer) side, 2 acyl side, 3 side chain; on linkers, the order of the positions; unused ones are H or OH. Bridge positions count the residues as written; N and C are the ends. Square brackets hold non-standard residues; d marks the D form. Peptide text beside a SMILES is read from it. Phe(4-F) = N[C@@H](Cc1ccc(F)cc1)C(=O)O; X1 = CCCCCCC[C@H](N[*:1])C(=O)[*:2]; Nle = CCCC[C@H](N)C(=O)O; X2 = C(C[*:1])C[*:2]; βAla = NCCC(=O)O
measured_quantity: remaining at 1 h (%)

- CCCCCCC[C@@H]1NC(=O)[C@@H]2CSCCCSC[C@@H](NC(=O)[C@H](Cc3c[nH]c4ccccc34)NC(=O)[C@@H]3CCCN3C(=O)[C@H](CC(=O)O)NC(=O)[C@H](Cc3ccc(F)cc3)NC(=O)[C@H](CO)NC1=O)C(=O)NCCC(=O)N1CCC[C@H]1C(=O)N[C@@H](CCCC)C(=O)N2 [KS-58] (cyclo([βAla]P[Nle]C[X1]S[Phe(4-F)]DPW[dC]); linker 4-11 via X2): 77

====

- assay_remarks: Pharmacokinetics after intravenous injection
- Format: in vivo, mouse
- cond: mouse, iv; 10 mg/kg i.v., female BALB/c mice, plasma, LC-MS/MS, noncompartmental; mean ± SD, n = 3
Numbered stars: 1 amine (or outer) side, 2 acyl side, 3 side chain; on linkers, the order of the positions; unused ones are H or OH. Bridge positions count the residues as written; N and C are the ends. Square brackets hold non-standard residues; d marks the D form. Peptide text beside a SMILES is read from it. Phe(4-F) = N[C@@H](Cc1ccc(F)cc1)C(=O)O; X1 = CCCCCCC[C@H](N[*:1])C(=O)[*:2]; Nle = CCCC[C@H](N)C(=O)O; X2 = C(C[*:1])C[*:2]; βAla = NCCC(=O)O
measured_quantity: half-life

- CCCCCCC[C@@H]1NC(=O)[C@@H]2CSCCCSC[C@@H](NC(=O)[C@H](Cc3c[nH]c4ccccc34)NC(=O)[C@@H]3CCCN3C(=O)[C@H](CC(=O)O)NC(=O)[C@H](Cc3ccc(F)cc3)NC(=O)[C@H](CO)NC1=O)C(=O)NCCC(=O)N1CCC[C@H]1C(=O)N[C@@H](CCCC)C(=O)N2 [KS-58] (cyclo([βAla]P[Nle]C[X1]S[Phe(4-F)]DPW[dC]); linker 4-11 via X2): ~30 min

====

- assay_remarks: Plasma protein binding (dialysis)
- Format: in vitro ADME
- cond: dialysis of plasma against PBS pH 7.4, 5 h, 37 °C, LC-MS/MS; human and mouse plasma (Fig. 4E); read-out: free fraction in plasma
Numbered stars: 1 amine (or outer) side, 2 acyl side, 3 side chain; on linkers, the order of the positions; unused ones are H or OH. Bridge positions count the residues as written; N and C are the ends. Square brackets hold non-standard residues; d marks the D form. Peptide text beside a SMILES is read from it. Phe(4-F) = N[C@@H](Cc1ccc(F)cc1)C(=O)O; X1 = CCCCCCC[C@H](N[*:1])C(=O)[*:2]; Nle = CCCC[C@H](N)C(=O)O; X2 = C(C[*:1])C[*:2]; βAla = NCCC(=O)O
measured_quantity: fraction unbound at 5 h

- CCCCCCC[C@@H]1NC(=O)[C@@H]2CSCCCSC[C@@H](NC(=O)[C@H](Cc3c[nH]c4ccccc34)NC(=O)[C@@H]3CCCN3C(=O)[C@H](CC(=O)O)NC(=O)[C@H](Cc3ccc(F)cc3)NC(=O)[C@H](CO)NC1=O)C(=O)NCCC(=O)N1CCC[C@H]1C(=O)N[C@@H](CCCC)C(=O)N2 [KS-58] (cyclo([βAla]P[Nle]C[X1]S[Phe(4-F)]DPW[dC]); linker 4-11 via X2): < 0.1
